# Assayed Target: feline FcRn complex (FcRn-α subunit and β-microglobulin) (feline)
# Method Description: SPR (Biacore), FcRn on SA chip, pH 7.4
Observation Type: Kd (nM)
Answer format: numeric, nM implied, no suffix.

INSERT INTO results (binder, reading_unit, measured) VALUES
  ('feline IgG1a mutant ID No. 301: S428Y, Q311W, L314K, S434Y (antibody, part only; not given: Variable domains, not shown: another chain or arm of the molecule) constant: ASTTAPSVFPLAPSCGTTSGATVALACLVLGYFPEPVTVSWNSGALTSGVHTFPAVLQASGLYSLSSMVTVPSSRWLSDTFTCNVAHPPSNTKVDKTVRKTDHPPGPKPCDCPKCPPPEMLGGPSIFIFPPKPKDTLSISRTPEVTCLVVDLGPDDSDVQITWFVDNTQVYTAKTSPREEQFNSTYRVVSVLPILHWDWKKGKEFKCKVNSKSLPSPIERTISKAKGQPHEPQVYVLPPAQEELSRNKVSVTCLIKSFHPPDIAVEWEITGQPEPENNYRTTPPQLDSDGTYFVYSKLSVDRSHWQRGNTYTCSVYHEALHYHHTQKSLTQSPGK', 'nM', 494);

Kindly consider the entry below.
Entry feline IgG1a mutant ID No. 282: S252Y, Q311W, D312P, L314K (antibody, part only; not given: Variable domains, not shown: another chain or arm of the molecule) constant: ASTTAPSVFPLAPSCGTTSGATVALACLVLGYFPEPVTVSWNSGALTSGVHTFPAVLQASGLYSLSSMVTVPSSRWLSDTFTCNVAHPPSNTKVDKTVRKTDHPPGPKPCDCPKCPPPEMLGGPSIFIFPPKPKDTLYISRTPEVTCLVVDLGPDDSDVQITWFVDNTQVYTAKTSPREEQFNSTYRVVSVLPILHWPWKKGKEFKCKVNSKSLPSPIERTISKAKGQPHEPQVYVLPPAQEELSRNKVSVTCLIKSFHPPDIAVEWEITGQPEPENNYRTTPPQLDSDGTYFVYSKLSVDRSHWQRGNTYTCSVSHEALHSHHTQKSLTQSPGK — recorded Kd = 119
